These entries and their values trace back to patent US9884832B2.

- Measurement target: AM2 S31 (wild-type serine at position 31 in the M2 protein), influenza virus A/Udorn/72 (Influenza A virus)
- Sequence (P0DOF5 whole entry, looked up): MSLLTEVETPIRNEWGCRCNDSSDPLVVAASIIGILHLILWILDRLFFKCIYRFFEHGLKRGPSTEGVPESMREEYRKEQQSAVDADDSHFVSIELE
- Experimental protocol: cell-based
- Cond: Table 1; 100 uM; Xenopus oocytes, pH 5.5, -20 mV; read-out: S31 OOcyte Inhibition at 100 uM (%)
Quantity measured: inhibition at 100 µM

Problem: # lookup: inhibition at 100 µM of [O-][S+]1Cc2cc(CNC34CC5CC(CC(C5)C3)C4)sc2C1 (centres unmarked) [Example 85]
Result: 0 to 30%

Problem: # lookup: inhibition at 100 µM of COc1cc(O)ccc1CNC12CC3CC(CC(C3)C1)C2 [Example 56]
Result: 0 to 30%

Problem: # lookup: inhibition at 100 µM of Oc1ccc(CNC23CC4CC(CC(C4)C2)C3)c(O)c1 [Example 46]
Result: 31 to 95%

Problem: # lookup: inhibition at 100 µM of CN(CCC#N)c1ccc(CNC23CC4CC(CC(C4)C2)C3)cc1 [Example 38]
Result: 0 to 30%

Problem: # lookup: inhibition at 100 µM of c1ccc(CNC23CC4CC(CC(C4)C2)C3)nc1 [Example 72, Adamantan-1-yl-pyridin-2-ylmethyl-amine]
Result: 0 to 30%

Problem: # lookup: inhibition at 100 µM of c1cc(-c2nnn[nH]2)ccc1CNC12CC3CC(CC(C3)C1)C2 [Example 15]
Result: 0 to 30%

Problem: # lookup: inhibition at 100 µM of c1coc(COc2ccc(CNC34CC5CC(CC(C5)C3)C4)cc2)c1 [Example 21]
Result: 31 to 95%

Problem: # lookup: inhibition at 100 µM of Oc1ccc(CNC23CC4CC(CC(C4)C2)C3)cc1 [Example 9, 4-(Adamantan-1-ylaminomethyl)-phenol]
Result: 31 to 95%
